system: HeLa; assay: Cytotoxicity against human HeLa cells assessed as reduction in cell viability after 48 hrs by MTT assay; assay type: functional, cell-based
measure: pIC50
Note on units: pIC50 is unitless, being -log10 of a concentration expressed in mol/L.

Solved cases below.
CC(C)(C)c1nc(Nc2ccccc2[N+](=O)[O-])sc1Cc1ccc2c(c1)OCO2 = 3.71
Cc1ccc(Nc2nc(C(C)(C)C)c(Cc3ccc4c(c3)OCO4)s2)cc1C = 4.68
CC(C)(C)c1nc(Nc2ccc([N+](=O)[O-])cc2Cl)sc1Cc1ccc2c(c1)OCO2 = 4.29
CC(C)(C)c1nc(Nc2ccc(Br)cc2)sc1Cc1ccc2c(c1)OCO2 = 4.88

Enquiry: Bench note: what pIC50 did Cc1cccc(C)c1Nc1nc(C(C)(C)C)c(Cc2ccc3c(c2)OCO3)s1 show?
Return: 4.08
